- target_or_system: T1, recombinant hIL-18Rα extracellular domain (human, UniProt Q13478 22-329, biotin label (selection) or fluorescent probe (single-clone FACS), sites not given)
- T1 construct: extracellular domain; also called hIL-18Rα ECD; hIL-18Rα-ECD
- T1 sequence (looked up): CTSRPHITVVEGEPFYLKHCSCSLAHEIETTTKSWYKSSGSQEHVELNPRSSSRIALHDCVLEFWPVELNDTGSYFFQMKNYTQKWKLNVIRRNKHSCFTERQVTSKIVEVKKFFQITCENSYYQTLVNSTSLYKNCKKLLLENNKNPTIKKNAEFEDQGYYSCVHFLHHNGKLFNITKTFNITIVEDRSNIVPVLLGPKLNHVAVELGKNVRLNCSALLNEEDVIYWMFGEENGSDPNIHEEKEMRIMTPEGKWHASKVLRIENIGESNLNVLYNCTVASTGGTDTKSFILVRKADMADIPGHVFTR
- test_description: single-clone FACS, yeast display, 10 nM labelled hIL-18Rα ECD
Please provide measured % of fluorescence positive cells for the entries that follow.
# number only, unit % dropped from output

IN: Reported % of fluorescence positive cells for SEQ ID NO 95 (ligand) YFWKLSSKLSVIRNLNDQVLFIDQGNRPLFEDMTDSDCRDNAPRTIFIISMYKLSTWRGMAVTISVKCEKISTLSCENKIISFKEMNPPDYIKDTKSDIIFFQRSVPGHDNKMQFESSSYEGYFLACEKERDLFKLILKKEDELGDRSIMFTVQNED : what is it?
OUT: 3.45

IN: Reported % of fluorescence positive cells for SEQ ID NO 88 (ligand) YFPKLSSKLSVIRNLNDQVLFIDQGNRPLFEDMTDSDCRDNAPRTIFIISMYKHSSRRGMAVTISVKCEKISTLSCENKIISFKEMNPPDVIKDTKSDIIFFQASVPGHDNKMQFESSSYEGYFLACEKERDLFKLILKKEDELGDRSIMFTVQNED : what is it?
OUT: 5.45

IN: Reported % of fluorescence positive cells for SEQ ID NO 83 (ligand) YFWKLWSKLSVIRNLNDQVLFIDQGNRPLFEDMTDSDCRDNAPRTIFIISMYKPSNFRGMAVTISVKCEKISTLSCENKIISFKEMNPPDVIKDTKSDIIFFQGSVPGHDNKMQFESSSYEGYFLACEKERDLFKLILKKEDELGDRSIMFTVQNED : what is it?
OUT: 13.5
